- Tested on: SK-OV-3 ovarian
- test name: NCI tumour cell line growth inhibition, 48 h
measure name: TGI

These solved cases illustrate the format of a correct answer.
1. Cc1nc(C)c(N2CCNCC2)c(=O)[nH]1	> 100 µM
2. O=C(c1ccc(Cl)cc1)N(C(=S)N1CCN(c2ccccn2)CC1)C1CCCCC1	> 100 µM

API: the following record is the query input.
For the molecule O=C(NC(=O)c1cc(-c2ccccc2)n[nH]1)c1ccccc1 , what TGI is on record?
> 100 µM

----------
- System: MCF7 breast
- test name: NCI tumour cell line growth inhibition, 48 h
measure name: TGI (µM)
# output: bare number, implied unit µM

1) CCC(C)[C@H](NC(=O)Nc1cc(C(F)(F)F)cc(C(F)(F)F)c1)C(=O)N[C@@H](Cc1cn(C)cn1)C(=O)OC (stereo not given in full)	1.08

Could you tell me which TGI is on file for C[C@]12CC[C@H]3[C@@H](CC=C4C[C@@H](N5CCCC5)CC[C@@]43C)[C@@H]1C/C(=C\c1cccc(OCCN3CCOCC3)c1)[C@@H]2O ?
98.1

Queued: CCC(C)Nc1ccc(N)cc1 (stereo not given)
12.4

Also Nc1ccc(C2=CC(c3ccc(Cl)cc3)N3C=CSC3=N2)cc1 (stereo not given) ?
4.52

Now try COc1ccc2c(c1)c(-c1nc(-c3c[nH]c4ccncc34)cs1)cn2C .
3.09
